# TEST: Half life in Balb/c mouse at 25 mg/kg, po measured by LC-MS/MS analysis
# Assay type: ADME, organism-based
# SETUP CONDITIONS: in vivo
TEST READOUT: half-life (min)
The figure you give is taken to be in min; do not add the unit.

Which half-life value is on record for C[C@H]1c2ccc(C(=O)NCc3c(F)cc(F)cc3F)cc2N(Cc2c(F)cccc2Cl)C(=O)N1C ?
96

* * *

# TEST: Cmax/C0 in Balb/c mouse at 25 mg/kg, iv measured by LC-MS/MS analysis
# Type: ADME, organism-based
# Design: route intravenous, dose 25 mg/kg
# SETUP CONDITIONS: in vivo
TEST READOUT: Cmax (µg/mL)
The figure you give is taken to be in µg/mL; do not add the unit.

Which Cmax value is on record for C[C@H]1c2ccc(C(=O)NCc3c(F)cc(F)cc3F)cc2N(Cc2c(F)cccc2Cl)C(=O)N1C ?
20.1
